Assay: recombinant UMI read abundance after kanamycin selection (control-corrected) (log10(CPM+1)); higher = more efficient recombination; extreme values may be limits of the assay; sequences stand for … in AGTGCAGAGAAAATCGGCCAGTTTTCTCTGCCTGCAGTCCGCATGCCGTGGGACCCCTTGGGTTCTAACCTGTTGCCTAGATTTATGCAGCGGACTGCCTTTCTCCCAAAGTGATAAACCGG…AGGTTGGTTTCACT; site = the 11-nt donor;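 further: IS621 bridge recombinase in Escherichia coli cells against a fixed T5 target plasmid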
The sequences listed here are annotated with their recombinant UMI read abundance (log10).
// return just the number, without any unit appended

Solved cases (3 shown):
CCGTTAGCATGGACCGGTTTTCCCGGTAATCCGTATTTGTT (site CCGTTAGCTCA) : 0.00936
CGCATACCATGGACCGGTTTTCCCGGTAATCCGTATTTGAC (site CGCATACCTGT) : 0
GCAATTCCATGGACCGGTTTTCCCGGTAATCCGTATTTGAG (site GCAATTCCTCT) : 0.651

Data point: CTACTAACATGGACCGGTTTTCCCGGTAATCCGTATTTGGG (site CTACTAACTCC) ; recombinant UMI read abundance (log10) = 0.54

Data point: ATCAAAGCATGGACCGGTTTTCCCGGTAATCCGTATTTGAG (site ATCGAAGCTCT) ; recombinant UMI read abundance (log10) = 0.781

Data point: ATACTAACATGGACCGGTTTTCCCGGTAATCCGTATTTGGA (site CTACTAACTTC) ; recombinant UMI read abundance (log10) = 0.853

Data point: CCACCAGCATGGACCGGTTTTCCCGGTAATCCGTATTTGTA (site CCACCAGCTTA) ; recombinant UMI read abundance (log10) = 1.17

Data point: CGGACCCCATGGACCGGTTTTCCCGGTAATCCGTATTTGTT (site CGGAATCCTAA) ; recombinant UMI read abundance (log10) = 0.00407

Data point: GTATGCACATGGACCGGTTTTCCCGGTAATCCGTATTTGTC (site GTATGCACTCA) ; recombinant UMI read abundance (log10) = 0.0163

Data point: CGTGGGACATGGACCGGTTTTCCCGGTAATCCGTATTTGTT (site CGTGGGACTAA) ; recombinant UMI read abundance (log10) = 1.79

Data point: TTAGTCTCATGGACCGGTTTTCCCGGTAATCCGTATTTGAT (site TTAGTCTCTAT) ; recombinant UMI read abundance (log10) = 2.82

Data point: CTTGTCTCATGGACCGGTTTTCCCGGTAATCCGTATTTGTA (site CTTCTCTCTTA) ; recombinant UMI read abundance (log10) = 0.856

Data point: TCGACGGCATGGACCGGTTTTCCCGGTAATCCGTATTTGTG (site TCGACGGCTCA) ; recombinant UMI read abundance (log10) = 0.539

Data point: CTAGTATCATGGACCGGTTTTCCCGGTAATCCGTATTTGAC (site CGAGTATCTGT) ; recombinant UMI read abundance (log10) = 0.849

Data point: CTGTTACCATGGACCGGTTTTCCCGGTAATCCGTATTTGCT (site CTGATACCTAG) ; recombinant UMI read abundance (log10) = 0

Data point: ACAGTATCATGGACCGGTTTTCCCGGTAATCCGTATTTGGA (site ACAGTATCTTG) ; recombinant UMI read abundance (log10) = 2.02

Data point: TGTTCCTCATGGACCGGTTTTCCCGGTAATCCGTATTTGTA (site TGTTCCGCTTA) ; recombinant UMI read abundance (log10) = 0

Data point: AGGTTCCCATGGACCGGTTTTCCCGGTAATCCGTATTTGTA (site AGGTTCCCTTA) ; recombinant UMI read abundance (log10) = 1.5
